- System: M-07e human cytomegalic leukemia cells
- test-description: CSF-1R-related cell proliferation experiment, KIT (Cell Titer Glo)
- Assay type: cell-based
- setup-conditions: 72 h, read-out: Cytological experiment KIT IC50 (nM)
property-name: IC50 (nM)
Respond with the bare value in nM.

Check out these entries, answers already filled in.
{"molecule": "CCC1(C)CCN(C(=O)Nc2ccc(Oc3ccnc(-c4cnn(C)c4)c3)c(C)n2)C1=O (centres unmarked) [Example 33]", "unit-abbrev": "nM", "IC50": 535}
{"molecule": "Cc1nc(NC(=O)N2CCC(C)(C)C2=O)ccc1Oc1ccnc(-c2cnn(C)c2)c1 [Example 1]", "unit-abbrev": "nM", "IC50": 1060}
{"molecule": "Cn1cc(-c2cc(Oc3ccc(NC(=O)N4CCC(C)(C)C4=O)nc3)ccn2)cn1 [Example 2]", "unit-abbrev": "nM", "IC50": 158}

Field: next molecule
Record request: IC50 value, item Cc1nc(NC(=O)N2CCCC(C)(C)C2=O)ccc1Oc1ccnc(-c2cnn(C)c2)c1 [Example 28]
940

The reported measurements were obtained from patent US11149021B2.
